Assay: NCI Yeast Anticancer Drug Screen. Data for the sgs1 mgt1 strain (AID 161)
Conditions: S. cerevisiae sgs1 mgt1 strain, at 5.0 µM (retest, dose inferred, filed as 0.5)
About 79,000 compounds went through this panel and 15% of them were active in at least one assay; those are over-represented in the sample as a whole. Calls of active or inactive are those of the source. No stated cut-off is given here; in the data, active means growth inhibition above about 70%; inactive means the rest.
Outcome codes: yes (active), no (inactive)

{"columns": ["COMPOUND", "CLASS_LABEL"],
 "data": [
  ["CCC(=O)C(CCN1CCC2(CCCc3ccccc32)CC1)(c1ccccc1)c1ccccc1", "no"],
  ["CN(C)CCCNc1ccnc2c(COC(=O)N(CCCl)CCCl)ccc([N+](=O)[O-])c12", "no"],
  ["CC(=O)C1C2c3ccccc3C(c3ccccc32)C1C (configuration not stated)", "no"],
  ["O=C(O)Cc1ccc2c(c1)OCO2.[Ag]", "yes"],
  ["CCC[CH2][Sn]1([CH2]CCC)[O]N=Cc2ccccc2[O]1", "yes"],
  ["c1ccc(N=c2nc(N3CCOCC3)ss2)cc1", "no"],
  ["CCCCN1C(=O)C2C(C1=O)C1(Cl)C(Cl)=C(Cl)C2(Cl)C1(Cl)Cl (configuration not stated)", "no"],
  ["Nc1nc(N)c(-c2ccc(Cl)c(Cl)c2)c(CCc2ccc(CNC(=O)c3ccc(S(=O)(=O)F)cc3)cc2)n1", "no"],
  ["CCOc1ccc(/C=C/[N+](=O)[O-])cc1[N+](=O)[O-]", "no"],
  ["CNC(=O)N1CN(c2ccccc2)C2(CCN(CCCC(=O)c3ccc(F)cc3)CC2)C1=O", "no"],
  ["O=C1C(Cl)=C(Cl)C(=O)N1c1ccc(F)cc1", "no"],
  ["COc1cc[c]([Sb]([Br])([CH]=C(C)C)([CH]=C(C)C)[CH]=C(C)C)cc1", "no"],
  ["CCOC(=O)C(Cc1ccc(O)cc1)NCc1ccc(N(CCCl)CCCl)cc1 (configuration not stated)", "no"],
  ["CC(O)C(=O)O.CC(O)C(=O)O.[Ni] (configuration not stated)", "no"],
  ["O=C1C(=O)c2ccccc2-c2ccccc21.O=C1C(=O)c2ccccc2-c2ccccc21.[Hg]", "yes"],
  ["Clc1c(CI)ccc(CI)c1Cl", "no"],
  ["CCC(C)(c1ccc(O)cc1)c1ccc(O)cc1", "no"],
  ["Nc1ccc(Cc2ccc(N)c(Cl)c2)cc1Cl", "no"],
  ["CC(Cc1ccccc1)N(C)Cc1ccc(-c2ccc(Cl)cc2)o1 (configuration not stated)", "no"],
  ["O=C1NC(=O)C(C(c2ccnc3ccccc23)C2C(=O)NC(=O)NC2=O)C(=O)N1", "no"],
  ["N#CC(C#N)=Cc1ccc2c(c1)OC(Cl)O2 (configuration not stated)", "no"],
  ["CCC[CH2][Sn]([Cl])([Cl])[CH2]CCC", "yes"],
  ["O=[N+]([O-])[O-].O=[N+]([O-])[O-].[Au].[Au].c1ccc([P-]c2ccccc2)cc1.c1ccc([P-]c2ccccc2)cc1", "no"],
  ["OC1(c2ccccc2)CC2CCC(C1)N2CCCC(O)(c1ccccc1)c1ccccc1 (configuration not stated)", "no"],
  ["Cc1cn(CC2C=CC(CS[As](C)C)O2)c(=O)[nH]c1=O (configuration not stated)", "no"],
  ["ClC1=NSSC1(Cl)Cl", "no"],
  ["C[C@]12CCC3[C@@H](CC[C@@H]4c5nonc5CC[C@]34C)C1CCC2=O (some centres not stated)", "no"],
  ["O=C1c2ccccc2-c2cccc3cccc1c23", "no"],
  ["O=c1ssc(Cl)c1Cl", "yes"],
  ["COC(=O)C(F)C(Br)C(=O)OC (configuration not stated)", "no"],
  ["FC(F)(F)c1cccc(CCl)c1", "no"],
  ["CCOP(=O)(CP(=O)(OCC)OCC)OCC.[Cl][Sn]([Cl])([c]1ccccc1)[c]1ccccc1", "no"],
  ["CNCC(O)c1ccc(O)c(O)c1.[Pt].c1ccc([PH+](c2ccccc2)c2ccccc2)cc1.c1ccc([PH+](c2ccccc2)c2ccccc2)cc1", "no"],
  ["CCOP(=O)(CC(C)P(=O)(OCC)OCC)OCC.C[CH2][Sn]([Cl])([Cl])[CH2]C (configuration not stated)", "no"],
  ["CC(=O)O.CC(=O)[O-].CC(=O)[O-].[Co+3].[NH-]CC[NH-].[NH-]CC[NH-]", "no"],
  ["CCCCS.[Hg]", "yes"],
  ["O=C(O)CP(=O)(c1ccccc1)c1ccccc1.O=C(O)CP(=O)(c1ccccc1)c1ccccc1.[Cd]", "no"],
  ["COC(=O)C1=C(C)N2CCSC2(C)C(C(=O)OC)C1c1cccc(Cl)c1 (configuration not stated)", "no"],
  ["Cc1cccc2cc3ccccc3cc12", "no"],
  ["CN1c2cccc[c]2[Sn]([CH3])([CH3])[c]2ccccc21", "yes"],
  ["CCOC(=S)S", "no"],
  ["N=P(c1ccccc1)(c1ccccc1)c1ccccc1.[O]=[Cr](=[O])([OH])[O][Cr](=[O])(=[O])[OH]", "no"]
]}
